Origin of values: patent US7351709B2

- Assay system: ERα (Homo sapiens, UniProt P03372)
- Construct: expressed in transfected cells; host or cells: HAECT-1 cells infected with Ad5-wt-ER adenovirus
- Assay protocol: Creatine kinase (CK) assay in ERα infected HAECT-1 cells
- Assay type: cell-based
- Condition parameters: efficacy relative to the maximal stimulation observed with E2
// reported ER/CK % E2 for each item listed
Give the number; % E2 is assumed, so skip it.

Measured ER/CK % E2, CC[C@@H]1C(=O)N(Cc2ccccc2)c2cc(F)ccc2N1C(=O)c1cccc(O)c1 : 17

Measured ER/CK % E2, CC[C@H]1C(=O)N(CC)c2cc(F)ccc2N1S(=O)(=O)c1ccc(O)cc1 : 9

Measured ER/CK % E2, CC[C@@H]1C(=O)N(CC)c2ccc(F)cc2N1C(=O)c1ccc(O)cc1O : 36

Measured ER/CK % E2, CC[C@@H]1C(=O)N(C)c2cc(F)ccc2N1C(=O)c1cccc(O)c1 : 19

###

- Assay system: ERα (Homo sapiens)
- Construct: expressed in transfected cells; host or cells: HAECT-1 cells infected with Ad5-wt-ER adenovirus
- Assay protocol: IL-6 assay: inhibition of IL-1β induced IL-6 expression in ERα infected HAECT-1 cells
- Type: cell-based
- Condition parameters: Ad5-wt-ER infected HAECT-1 cells, IL-1β stimulated, IL-6 by ELISA
pIC50: −log10 of the molar value.
Classify as follows. Reported pIC50 greater than or equal to 7: y. Reported pIC50 below: n.

Use these answered entries as a reference point.
| Compound | Category |
| --- | --- |
| CC[C@H]1C(=O)N(CC)c2ccc(F)cc2N1C(=O)c1ccc(O)cc1 [Example 6] | n |
| CCCCN1C(=O)[C@@H](CC)N(C(=O)c2ccc(O)cc2)c2cc(F)ccc21 [Example 12] | y |
| CC[C@H]1C(=O)N(CC)c2ccc(C)cc2N1S(=O)(=O)c1ccc(O)cc1 [Example 27] | n |
| CC[C@H]1C(=O)N(CC)c2cc(Br)ccc2N1S(=O)(=O)c1ccc(O)cc1 [Example 31] | n |
| CC[C@H]1C(=O)N(C)c2ccc(C)cc2N1S(=O)(=O)c1ccc(O)cc1 [Example 28] | n |
| CCN1C(=O)[C@H](C)N(S(=O)(=O)c2ccc(O)cc2)c2cc(F)ccc21 [Example 21] | n |

Lookup: pIC50 >= 7 for C=CCN1C(=O)[C@H](CC)N(S(=O)(=O)c2ccc(O)cc2)c2cc(F)ccc21 [Example 22] ?
Found: n

Lookup: pIC50 >= 7 for CC[C@@H]1C(=O)N(C)c2ccc(F)cc2N1C(=O)c1ccc(O)cc1O [Example 19] ?
Found: y

###

- Assay system: ERα (Homo sapiens)
- Construct: expressed in transfected cells; host or cells: HAECT-1 cells infected with Ad5-wt-ER adenovirus
- Assay protocol: IL-6 assay: inhibition of IL-1β induced IL-6 expression in ERα infected HAECT-1 cells
- Assay type: cell-based
- Condition parameters: efficacy relative to the maximal inhibition observed with E2
// reported ER/IL-6 % E2 for each item listed
Give the number; % E2 is assumed, so skip it.

The following compounds have reported results that may help.
| Compound | Reading unit | ER/IL-6 % E2 |
| --- | --- | --- |
| CCCCCN1C(=O)[C@@H](CC)N(C(=O)c2ccc(O)cc2)c2cc(F)ccc21 [Example 13] | % E2 | 102 |
| C=CCN1C(=O)[C@@H](CC)N(C(=O)c2ccc(O)cc2)c2cc(F)ccc21 [Example 10] | % E2 | 95 |
| CC[C@@H]1C(=O)N(C(C)C)c2ccc(F)cc2N1C(=O)c1ccc(O)cc1 [Example 11] | % E2 | 91 |
| CC[C@@H]1C(=O)N(C)c2ccc(F)cc2N1C(=O)c1ccc(O)cc1O [Example 19] | % E2 | 92 |
| CC[C@@H]1C(=O)N(CC)c2ccc(F)cc2N1C(=O)c1ccc(O)cc1 [Example 8] | % E2 | 99 |

Entry CC[C@H]1C(=O)N(C)c2ccc(C)cc2N1S(=O)(=O)c1ccc(O)cc1 [Example 28] , ERα (Homo sapiens) data, ER/IL-6 % E2 value: 92

Entry CC[C@H]1C(=O)N(CC)c2ccc(Br)cc2N1S(=O)(=O)c1ccc(O)cc1 [Example 33] , ERα (Homo sapiens) data, ER/IL-6 % E2 value: 92

Entry CC[C@H]1C(=O)N(C)c2ccc(Br)cc2N1S(=O)(=O)c1ccc(O)cc1 [Example 34] , ERα (Homo sapiens) data, ER/IL-6 % E2 value: 128

Entry CC[C@H]1C(=O)N(C)c2ccc(F)cc2N1S(=O)(=O)c1ccc(O)cc1 [Example 25] , ERα (Homo sapiens) data, ER/IL-6 % E2 value: 108

Entry C=CCN1C(=O)[C@H](CC)N(S(=O)(=O)c2ccc(O)cc2)c2cc(F)ccc21 [Example 22] , ERα (Homo sapiens) data, ER/IL-6 % E2 value: 55

Entry CCCN1C(=O)[C@H](CC)N(S(=O)(=O)c2ccc(O)cc2)c2cc(F)ccc21 [Example 20] , ERα (Homo sapiens) data, ER/IL-6 % E2 value: 79

Entry CC[C@H]1C(=O)N(CC)c2cc(F)ccc2N1S(=O)(=O)c1ccc(O)cc1 [Example 30] , ERα (Homo sapiens) data, ER/IL-6 % E2 value: 63

###

- Assay system: ERα (Homo sapiens)
- Assay protocol: IL-6 assay: inhibition of IL-1β induced IL-6 expression in ERα infected HAECT-1 cells
- Condition parameters: Ad5-wt-ER infected HAECT-1 cells, IL-1β stimulated, IL-6 by ELISA
// reported IC50 for each item listed
Give the number; nM is assumed, so skip it.

The following molecules have reported results that may help.
| Smiles entry | Recorded metric | Assay value |
| --- | --- | --- |
| CC[C@@H]1C(=O)N(CC)c2ccc(F)cc2N1C(=O)c1ccc(O)cc1 | IC50 | 139 |
| CCCN1C(=O)[C@H](CC)N(S(=O)(=O)c2ccc(O)cc2)c2cc(F)ccc21 | IC50 | 157 |
| CC[C@@H]1C(=O)N(C)c2ccc(F)cc2N1C(=O)c1ccc(O)cc1 | IC50 | 102 |
| CC[C@@H]1C(=O)N(C)c2cc(F)ccc2N1C(=O)c1ccc(O)cc1 | IC50 | 74 |
| CC[C@H]1C(=O)N(CC)c2ccc(Br)cc2N1S(=O)(=O)c1ccc(O)cc1 | IC50 | 413 |
| C=CCN1C(=O)[C@@H](CC)N(C(=O)c2ccc(O)cc2)c2cc(F)ccc21 | IC50 | 57 |
| CC[C@@H]1C(=O)N(C)c2cc(F)ccc2N1C(=O)c1cccc(O)c1 | IC50 | 520 |
| CC[C@H]1C(=O)N(C)c2ccc(F)cc2N1S(=O)(=O)c1ccc(O)cc1 | IC50 | 681 |
| CCCCN1C(=O)[C@H](CC)N(S(=O)(=O)c2ccc(O)cc2)c2cc(F)ccc21 | IC50 | 313 |
| CC[C@H]1C(=O)N(CC)c2cc(F)ccc2N1S(=O)(=O)c1ccc(O)cc1 | IC50 | 738 |

Entry CC[C@@H]1C(=O)N(C(C)C)c2ccc(F)cc2N1C(=O)c1ccc(O)cc1 , ERα (Homo sapiens) data, IC50 value: 105

Entry CC[C@H]1C(=O)N(Cc2ccccc2)c2ccc(F)cc2N1S(=O)(=O)c1ccc(O)cc1 , ERα (Homo sapiens) data, IC50 value: 534

Entry CCCCCN1C(=O)[C@@H](CC)N(C(=O)c2ccc(O)cc2)c2cc(F)ccc21 , ERα (Homo sapiens) data, IC50 value: 89

Entry CC[C@@H]1C(=O)N(CC)c2cc(F)ccc2N1C(=O)c1ccc(O)cc1 , ERα (Homo sapiens) data, IC50 value: 72

Entry CC[C@H]1C(=O)N(C)c2cc(Br)ccc2N1S(=O)(=O)c1ccc(O)cc1 , ERα (Homo sapiens) data, IC50 value: 429

Entry CC[C@@H]1C(=O)N(Cc2ccccc2)c2cc(F)ccc2N1C(=O)c1cccc(O)c1 , ERα (Homo sapiens) data, IC50 value: 542

Entry CC[C@H]1C(=O)N(CC)c2ccc(F)cc2N1S(=O)(=O)c1ccc(O)cc1 , ERα (Homo sapiens) data, IC50 value: 339

Entry CC[C@H]1C(=O)N(C)c2ccc(Br)cc2N1S(=O)(=O)c1ccc(O)cc1 , ERα (Homo sapiens) data, IC50 value: 258

Entry CC[C@H]1C(=O)N(C)c2ccc(F)cc2N1C(=O)c1ccc(O)cc1 , ERα (Homo sapiens) data, IC50 value: 303

###

- Assay system: ERα (Homo sapiens)
- Construct: expressed in transfected cells; host or cells: HAECT-1 cells infected with Ad5-wt-ER adenovirus
- Sequence (P03372 1-595): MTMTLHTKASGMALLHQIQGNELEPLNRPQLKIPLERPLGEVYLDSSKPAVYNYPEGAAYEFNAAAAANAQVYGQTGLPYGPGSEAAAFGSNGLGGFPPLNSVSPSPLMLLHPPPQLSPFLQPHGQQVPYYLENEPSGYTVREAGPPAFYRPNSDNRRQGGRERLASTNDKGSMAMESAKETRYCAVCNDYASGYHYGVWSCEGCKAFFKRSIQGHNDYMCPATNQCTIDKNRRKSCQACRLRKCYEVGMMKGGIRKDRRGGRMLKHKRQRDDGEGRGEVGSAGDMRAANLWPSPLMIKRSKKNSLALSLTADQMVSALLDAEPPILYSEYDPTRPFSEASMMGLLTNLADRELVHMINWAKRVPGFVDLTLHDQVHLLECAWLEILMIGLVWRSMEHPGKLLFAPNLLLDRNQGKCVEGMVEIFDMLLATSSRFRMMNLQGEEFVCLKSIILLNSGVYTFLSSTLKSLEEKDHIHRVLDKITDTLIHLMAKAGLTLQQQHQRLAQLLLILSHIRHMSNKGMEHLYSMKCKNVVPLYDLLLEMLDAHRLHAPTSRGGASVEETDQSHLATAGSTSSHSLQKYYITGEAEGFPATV
- Assay protocol: IL-6 assay: inhibition of IL-1β induced IL-6 expression in ERα infected HAECT-1 cells
- Format: cell-based
- Condition parameters: efficacy relative to the maximal inhibition observed with E2
// reported ER/IL-6 % E2 for each item listed
Give the number; % E2 is assumed, so skip it.

| Smiles entry | Assay system | Recorded metric | Assay value |
| --- | --- | --- | --- |
| CC[C@H]1C(=O)N(Cc2ccccc2)c2ccc(F)cc2N1S(=O)(=O)c1ccc(O)cc1 | ERα (Homo sapiens) | ER/IL-6 % E2 | 40 |
| CC[C@@H]1C(=O)N(CC(F)(F)F)c2ccc(F)cc2N1C(=O)c1ccc(O)cc1 | ERα (Homo sapiens) | ER/IL-6 % E2 | 83 |
| CC[C@@H]1C(=O)N(C)c2cc(F)ccc2N1C(=O)c1ccc(O)cc1 | ERα (Homo sapiens) | ER/IL-6 % E2 | 99 |
| CCCCN1C(=O)[C@H](CC)N(S(=O)(=O)c2ccc(O)cc2)c2cc(F)ccc21 | ERα (Homo sapiens) | ER/IL-6 % E2 | 106 |
| CCCN1C(=O)[C@@H](CC)N(C(=O)c2ccc(O)cc2)c2cc(F)ccc21 | ERα (Homo sapiens) | ER/IL-6 % E2 | 96 |

Measured ER/IL-6 % E2, CC[C@@H]1C(=O)N(C2CCCC2)c2ccc(F)cc2N1C(=O)c1ccc(O)cc1 : 96

Measured ER/IL-6 % E2, CC[C@H]1C(=O)N(C)c2ccc(F)cc2N1C(=O)c1ccc(O)cc1 : 44

Measured ER/IL-6 % E2, CC[C@@H]1C(=O)N(C)c2ccc(F)cc2N1C(=O)c1ccc(O)cc1 : 84
